molecular target: Transient receptor potential cation channel subfamily V member 1 (Homo sapiens); experiment: Antagonist activity at capsaicin-induced human TRPV1 expressed in CHOK1 cells by FLIPR assay
observed.property: Ki (µM)

compound	tested.target	Ki / µM
CC(C(=O)NCc1cc(C(F)(F)F)nn1-c1cccc(Cl)c1)c1ccc2c(c1)CCC2 (centres undefined)	Transient receptor potential cation channel subfamily V member 1 (Homo sapiens)	0.0041
CC(C(=O)NCc1cc(C(F)(F)F)nn1-c1cccc(Cl)c1)c1ccc2c(c1)OCO2 (centres undefined)	Transient receptor potential cation channel subfamily V member 1 (Homo sapiens)	0.0112
O=C(Cc1ccc2c(c1)CCC2)NCc1cc(C(F)(F)F)nn1-c1ccc(Cl)cc1	Transient receptor potential cation channel subfamily V member 1 (Homo sapiens)	0.0378
CC(C)(C)c1cc(CNC(=O)Cc2ccc3c(c2)CCC3)n(-c2cccc(Cl)c2)n1	Transient receptor potential cation channel subfamily V member 1 (Homo sapiens)	0.0029
CC(C(=O)NCc1cc(C(F)(F)F)nn1-c1cccc(C(F)(F)F)c1)c1ccc2c(c1)CCC2 (centres undefined)	Transient receptor potential cation channel subfamily V member 1 (Homo sapiens)	0.0075

I = CC1CCN(c2cc(C(C)(C)C)ccc2CNC(=O)C(C)c2ccc3c(c2)OCO3)CC1 (centres undefined)
II = CC(C)(C)c1cc(CNC(=O)Cc2ccc3c(c2)CCC3)n(-c2ccc(Cl)cc2)n1
Query :: Would you kindly point out which of I and II has the smaller Ki figure? Give the label of your selection.
Result :: II
(II: 0.0111 µM, I: 0.0372 µM)

---

target: Transient receptor potential cation channel subfamily V member 1 (Homo sapiens, UniProt Q8NER1); assay: Antagonist activity at capsaicin-induced human TRPV1 expressed in CHOK1 cells by FLIPR assay
Sequence (Q8NER1 whole entry): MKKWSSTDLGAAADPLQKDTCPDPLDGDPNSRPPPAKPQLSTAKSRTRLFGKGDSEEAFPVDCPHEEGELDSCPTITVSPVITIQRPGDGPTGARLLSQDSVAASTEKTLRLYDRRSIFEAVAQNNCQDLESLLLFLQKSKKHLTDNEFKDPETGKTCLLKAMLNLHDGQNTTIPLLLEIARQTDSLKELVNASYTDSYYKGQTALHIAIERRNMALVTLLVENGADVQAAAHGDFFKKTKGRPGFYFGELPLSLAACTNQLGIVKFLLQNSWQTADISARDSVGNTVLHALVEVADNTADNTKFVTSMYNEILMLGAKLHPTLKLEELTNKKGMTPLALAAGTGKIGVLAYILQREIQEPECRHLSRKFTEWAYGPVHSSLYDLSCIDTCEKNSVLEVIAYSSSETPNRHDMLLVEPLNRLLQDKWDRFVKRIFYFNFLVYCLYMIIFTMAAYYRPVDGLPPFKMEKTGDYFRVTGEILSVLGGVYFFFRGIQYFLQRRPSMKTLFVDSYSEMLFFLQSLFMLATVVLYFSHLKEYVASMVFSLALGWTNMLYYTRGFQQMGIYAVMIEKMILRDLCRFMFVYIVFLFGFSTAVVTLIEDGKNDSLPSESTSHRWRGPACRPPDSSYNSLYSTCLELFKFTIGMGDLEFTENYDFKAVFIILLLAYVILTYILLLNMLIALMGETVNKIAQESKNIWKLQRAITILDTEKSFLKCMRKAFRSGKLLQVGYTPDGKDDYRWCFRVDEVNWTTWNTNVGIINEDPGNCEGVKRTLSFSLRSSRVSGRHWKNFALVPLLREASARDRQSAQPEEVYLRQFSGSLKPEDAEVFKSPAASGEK
observed.property: Ki (nM)

Examples with answers:
compound	endpoint.unit	measurement
CC1CCN(c2nc(C(C)(C)C)ccc2CNC(=O)C(C)c2ccc3c(c2)CCC3)CC1 (stereo not given)	nM	44
CC1CCN(c2cc(C(C)(C)C)ccc2CNC(=O)C(C)c2ccc3c(c2)CCC3)CC1 (stereo not given)	nM	61.7
CC1CCN(c2cc(C(C)(C)C)ccc2CNC(=O)Cc2ccc3c(c2)CCC3)CC1	nM	46.5

A = CC(C(=O)NCc1cc(C(F)(F)F)nn1-c1ccc(Cl)cc1)c1ccc2c(c1)CCC2 (stereo not given)
B = CC(C(=O)NCc1cc(C(F)(F)F)nn1-c1ccc(F)c(F)c1)c1ccc2c(c1)CCC2 (stereo not given)
Query :: Would you kindly point out which of A and B has the smaller Ki figure? Give the label of your selection.
Result :: B

---

molecular target: Transient receptor potential cation channel subfamily V member 1 (Homo sapiens); assay: Antagonist activity at capsaicin-induced human TRPV1 expressed in CHOK1 cells by FLIPR assay; type: cell-based; settings: CHO-K1
Active and inactive are the calls of the source. No cut-off for these calls is given here.
// classify into active, inactive

Query :: Status in this test for CC(C(=O)NCc1cc(C(C)(C)C)nn1-c1cc(Cl)cc(Cl)c1)c1ccc2c(c1)CCC2 (centres undefined) ?
Result :: active

---

target: Transient receptor potential cation channel subfamily V member 1 (Homo sapiens, UniProt Q8NER1); experiment: Antagonist activity at capsaicin-induced human TRPV1 expressed in CHOK1 cells by FLIPR assay; assay type: cell-based; details: CHO-K1
Activity calls are given as the source filed them. The calls are words filed in the database; no cut-off is given here.
// classify into active, inactive

compound	label.class
CC(C(=O)NCc1cc(C(F)(F)F)nn1-c1ccc(OC(F)(F)F)cc1)c1ccc2c(c1)OCO2 (stereo not drawn)	inactive
COc1ccc(-n2nc(C(C)(C)C)cc2CNC(=O)Cc2ccc3c(c2)OCO3)cc1	inactive
COc1ccc(-n2nc(C(C)(C)C)cc2CNC(=O)C(C)c2ccc3c(c2)CCC3)cc1 (stereo not drawn)	inactive

Query :: Status in this test for `O=C(Cc1ccc2c(c1)OCO2)NCc1cc(C(F)(F)F)nn1-c1ccc(F)cc1` ?
Result :: inactive

Query :: Status in this test for CC(C(=O)NCc1cc(C(C)(C)C)nn1-c1ccc(Cl)cc1)c1ccc2c(c1)CCC2 (stereo not drawn) ?
Result :: active

Query :: Status in this test for `CC(C)(C)c1cc(CNC(=O)Cc2ccc3c(c2)OCO3)n(-c2ccc(OC(F)(F)F)cc2)n1` ?
Result :: inactive

Query :: Status in this test for CC(C(=O)NCc1cc(C(C)(C)C)nn1-c1ccc(F)c(F)c1)c1ccc2c(c1)CCC2 (stereo not drawn) ?
Result :: active

Query :: Status in this test for COc1ccc(-n2nc(C(F)(F)F)cc2CNC(=O)C(C)c2ccc3c(c2)CCC3)cc1 (stereo not drawn) ?
Result :: inactive
